system: HepG2; assay: Antiproliferative activity against human HepG2 cells treated for 72 hrs by MTT assay; type: functional, cell-based; conditions: HepG2, 72 h
measurement-name: pIC50
The value called pIC50 is obtained by taking minus log10 of the concentration in mol/L.

Sample answers from the record:
input: Sample CNC(=O)c1cc(Oc2ccc(NC(=O)Nc3ccc(Cl)c(C(F)(F)F)c3)cc2)ccn1 — what was its pIC50?
output: 5.68

input: Given the entry COc1ccc2[nH]c3c(c2c1)CCN1C(=O)c2cc(F)c(F)cc2N(c2cccc(F)c2)C31 (stereo not drawn) , report its measured pIC50.
output: 5.16

input: Given COc1ccc2[nH]c3c(c2c1)CCN1C(=O)c2cc(F)ccc2N(c2ccc(OC)c(F)c2)C31 (stereo not drawn) , state its recorded pIC50.
output: 5.33

input: Reported pIC50 for CCOc1ccc2[nH]c3c(c2c1)CCN1C(=O)c2cc(F)cc(F)c2N(c2cccc(F)c2)C31 (stereo not drawn) : what is it?
output: 6.07

input: Could you share which pIC50 value was measured for COc1cc(F)cc(N2c3ccc(F)cc3C(=O)N3CCc4c([nH]c5ccc(OC)cc45)C32)c1 (stereo not drawn) ?
output: 5.54

input: pIC50 lookup needed for CC(=O)Oc1ccc2[nH]c3c(c2c1)CCN1C(=O)c2cc(F)cc(F)c2N(c2cccc(F)c2)C31 (stereo not drawn) , thanks.
output: 6.74

Next:
input: Request the reported pIC50 associated with COc1ccc2[nH]c3c(c2c1)CCN1C(=O)c2cc(F)cc(F)c2N(c2cccc(F)c2)C31 (stereo not drawn)
output: 6.57

input: Would you mind telling me what pIC50 value was observed for COc1ccc2[nH]c3c(c2c1)CCN1C(=O)c2cc(F)ccc2N(c2cc(F)cc(Cl)c2)C31 (stereo not drawn) ?
output: 5.41

input: Returns the measured pIC50 for the input compound. Input: COc1ccc2[nH]c3c(c2c1)CCN1C(=O)c2cc(F)ccc2N(c2ccc(Cl)c(F)c2)C31 (stereo not drawn)
output: 5.19

input: Entry Cc1ccc2[nH]c3c(c2c1)CCN1C(=O)c2cc(F)cc(F)c2N(c2cccc(F)c2)C31 (stereo not drawn) has what pIC50?
output: 6.29

input: Field request: pIC50 | item: COc1ccc2[nH]c3c(c2c1)CCN1C(=O)c2cc(F)ccc2N(c2cc(F)ccc2C)C31 (stereo not drawn)
output: 5.14

input: Look at this compound and give its reported pIC50. O=C1c2cc(F)cc(F)c2N(c2cccc(F)c2)C2c3[nH]c4ccccc4c3CCN12 (stereo not drawn)
output: 6.41

input: Recorded pIC50 for COc1ccc2[nH]c3c(c2c1)CCN1C(=O)c2cc(F)ccc2N(c2cc(F)ccc2F)C31 (stereo not drawn) , please?
output: 5.55

input: Fill in: pIC50 of COc1ccc2[nH]c3c(c2c1)CCN1C(=O)c2cc(F)ccc2N(c2ccc(C)c(F)c2)C31 (stereo not drawn) is ___
output: 5.34

input: Sample O=C1c2cc(F)cc(F)c2N(c2cccc(F)c2)C2c3[nH]c4ccc(O)cc4c3CCN12 (stereo not drawn) — what was its pIC50?
output: 7.05

input: Any idea what pIC50 was measured for COc1ccc2[nH]c3c(c2c1)CCN1C(=O)c2cc(F)ccc2N(c2cc(F)ccc2Br)C31 (stereo not drawn) ?
output: 4.88

input: Recorded pIC50 of COc1ccc2[nH]c3c(c2c1)CCN1C(=O)c2cc(F)ccc2N(c2ccc(F)c(F)c2)C31 (stereo not drawn) , please.
output: 5.87

input: What value of pIC50 has been reported for the following compound? COc1ccc2[nH]c3c(c2c1)CCN1C(=O)c2cc(F)ccc2N(c2cc(F)cc(Br)c2)C31 (stereo not drawn)
output: 5.36
